test system: SN12C (Kidney Carcinoma); assay: Bliss excess, mean over the matrix (fraction); higher = more synergy
Mark NO for Bliss excess values under -0.05, and YES for everything at or above.

See these solved cases before continuing.
[[record]]
molecule = "Cc1c2c(nn1C)CSCc1cc(n(C)n1)CSc1cc(c3ccccc3c1)OCCCc1c(C(=O)O)n(C)c3c-2c(Cl)ccc13 [AZD5991] + CC1(C)CCC(CN2CCN(c3ccc(C(=O)NS(=O)(=O)c4ccc(NCC5CCOCC5)c([N+](=O)[O-])c4)c(Oc4cnc5[nH]ccc5c4)c3)CC2)=C(c2ccc(Cl)cc2)C1 [Venetoclax] (first compound max 1 µM, 7x7, partner max 1 µM)"
discrete_label = "YES"

[[record]]
molecule = "N#Cc1cnc(Nc2cc(NC[C@H]3CNCCO3)c(C(F)(F)F)cn2)cn1 [SRA737] + CCc1c2c(nc3ccc(O)cc13)-c1cc3c(c(=O)n1C2)COC(=O)[C@]3(O)CC [SN-38] (first compound max 10 µM, 7x7, partner max 0.3 µM)"
discrete_label = "YES"

[[record]]
molecule = "CC1(C)CCC(CN2CCN(c3ccc(C(=O)NS(=O)(=O)c4ccc(NCC5CCOCC5)c([N+](=O)[O-])c4)c(Oc4cnc5[nH]ccc5c4)c3)CC2)=C(c2ccc(Cl)cc2)C1 [Venetoclax] + CN(C)CCCOc1ccc(-c2ccc3ncc4c(c3c2)n(C2CCOCC2)c(=O)n4C)cn1 [AZD0156] (first compound max 1 µM, 7x7, partner max 1 µM)"
discrete_label = "YES"


Decide: is the reported value of Bliss excess for CC1(C)CCC(CN2CCN(c3ccc(C(=O)NS(=O)(=O)c4ccc(NCC5CCOCC5)c([N+](=O)[O-])c4)c(Oc4cnc5[nH]ccc5c4)c3)CC2)=C(c2ccc(Cl)cc2)C1 [Venetoclax] + Cc1cc2ncnn2cc1Nc1ncc2c(n1)n(C1CCOCC1)c(=O)n2C [AZD7648] (first compound max 1 µM, 7x7, partner max 10 µM) equal to or greater than -0.05? YES

Decide: is the reported value of Bliss excess for O=C(c1cc(Cc2n[nH]c(=O)c3ccccc23)ccc1F)N1CCN(C(=O)C2CC2)CC1 [Olaparib] + CC1(C)CCC(CN2CCN(c3ccc(C(=O)NS(=O)(=O)c4ccc(NCC5CCOCC5)c([N+](=O)[O-])c4)c(Oc4cnc5[nH]ccc5c4)c3)CC2)=C(c2ccc(Cl)cc2)C1 [Venetoclax] (first compound max 10 µM, 7x7, partner max 1 µM) equal to or greater than -0.05? NO

Decide: is the reported value of Bliss excess for CC1(C)CCC(CN2CCN(c3ccc(C(=O)NS(=O)(=O)c4ccc(NCC5CCOCC5)c([N+](=O)[O-])c4)c(Oc4cnc5[nH]ccc5c4)c3)CC2)=C(c2ccc(Cl)cc2)C1 [Venetoclax] + C1CN(CCC1(C(=O)N[C@@H](CCO)C2=CC=C(C=C2)Cl)N)C3=NC=NC4=C3C=CN4 [Capivasertib] (first compound max 1 µM, 7x7, partner max 3 µM) equal to or greater than -0.05? NO

Decide: is the reported value of Bliss excess for NC1(C(=O)N[C@@H](CCO)c2ccc(Cl)cc2)CCN(c2ncnc3[nH]ccc23)CC1 [Capivasertib] + CC(C)n1c(=O)n(C)c2cnc3cc(F)c(-c4ccc(OCCCN5CCCCC5)nc4)cc3c21 [AZD1390] (first compound max 10 µM, 7x7, partner max 0.3 µM) equal to or greater than -0.05? YES

Decide: is the reported value of Bliss excess for CN(CCO)CC[C@H](CSc1ccccc1)Nc1ccc(S(=O)(=O)NC(=O)c2ccc(N3CCC([C@@H](O)c4ccccc4-c4ccc(Cl)cc4)CC3)cc2)cc1S(=O)(=O)C(F)(F)F [AZD4320] + Cn1cnc2c(F)c(Nc3ccc(Br)cc3Cl)c(C(=O)NOCCO)cc21 [Selumetinib] (first compound max 1 µM, 7x7, partner max 3 µM) equal to or greater than -0.05? YES

Decide: is the reported value of Bliss excess for CC1(C)CCC(CN2CCN(c3ccc(C(=O)NS(=O)(=O)c4ccc(NCC5CCOCC5)c([N+](=O)[O-])c4)c(Oc4cnc5[nH]ccc5c4)c3)CC2)=C(c2ccc(Cl)cc2)C1 [Venetoclax] + CS(=O)(=O)CCNCc1ccc(-c2ccc3ncnc(Nc4ccc(OCc5cccc(F)c5)c(Cl)c4)c3c2)o1 [Lapatinib] (first compound max 1 µM, 7x7, partner max 10 µM) equal to or greater than -0.05? YES

----------
test system: NCI-H1793 (Lung Adenocarcinoma); assay: combination Emax (second highest fraction inhibited in the dose matrix, 72 h); higher = more inhibition; extreme values may be limits of the assay
reported.endpoint: combination Emax
Numbers only.

[[record]]
compound = "COc1cccc(OCCCN)c1-c1cc(Nc2cnc(C#N)cn2)n[nH]1 [Prexasertib] + C=CCn1c(=O)c2cnc(Nc3ccc(N4CCN(C)CC4)cc3)nc2n1-c1cccc(C(C)(C)O)n1 [AZD1775] (first compound max 1 µM, partner max 1 µM)"
measured_number = 0.532

[[record]]
compound = "Cc1c2c(nn1C)CSCc1cc(n(C)n1)CSc1cc(c3ccccc3c1)OCCCc1c(C(=O)O)n(C)c3c-2c(Cl)ccc13 [AZD5991] + Cn1cnc2c(F)c(Nc3ccc(Br)cc3Cl)c(C(=O)NOCCO)cc21 [Selumetinib] (first compound max 1 µM, 7x7, partner max 3 µM)"
measured_number = 0.244


Look up and report measured combination Emax for this entry: COc1cc2ncnc(Nc3ccc(F)c(Cl)c3)c2cc1OCCCN1CCOCC1 [Gefitinib] + CC(C)n1c(=O)n(C)c2cnc3cc(F)c(-c4ccc(OCCCN5CCCCC5)nc4)cc3c21 [AZD1390] (first compound max 10 µM, 7x7, partner max 0.3 µM) 0.143

----------
tested on: NCI-H1299 (Non-Small Cell Lung Carcinoma); test: Bliss excess, mean over the matrix (fraction); higher = more synergy
reported.endpoint: Bliss excess
Answers are plain numbers.

Please go through the list and note Bliss excess for each molecule.
1. C=CCn1c(=O)c2cnc(Nc3ccc(N4CCN(C)CC4)cc3)nc2n1-c1cccc(C(C)(C)O)n1 [AZD1775] + CCc1c2c(nc3ccc(O)cc13)-c1cc3c(c(=O)n1C2)COC(=O)[C@]3(O)CC [SN-38] (first compound max 1 µM, partner max 0.3 µM)
2. COc1nnc2ccc(N3CCC(c4ccc(OCCN5CCN(C)C(=O)[C@H]5C)cc4)CC3)nn12 [AZD5153] + CCN(CCO)CCCOc1ccc2c(Nc3cc(CC(=O)Nc4cccc(F)c4)[nH]n3)ncnc2c1 [AZD2811] (first compound max 1 µM, 7x7, partner max 1 µM)
3. Cc1cc2ncnn2cc1Nc1ncc2c(n1)n(C1CCOCC1)c(=O)n2C [AZD7648] + O=C(c1cc(Cc2n[nH]c(=O)c3ccccc23)ccc1F)N1CCN(C(=O)C2CC2)CC1 [Olaparib] (first compound max 10 µM, 7x7, partner max 10 µM)

1: -0.0071; 2: -0.0578; 3: -0.03

----------
test system: COR-L95 (Small Cell Lung Carcinoma); assay: Bliss excess, mean over the matrix (fraction); higher = more synergy
reported.endpoint: Bliss excess
One number for each entry.

[[record]]
compound = "C=CCn1c(=O)c2cnc(Nc3ccc(N4CCN(C)CC4)cc3)nc2n1-c1cccc(C(C)(C)O)n1 [AZD1775] + Nc1ccn([C@@H]2O[C@H](CO)[C@@H](O)C2(F)F)c(=O)n1 [Gemcitabine] (first compound max 1 µM, partner max 0.3 µM)"
measured_number = -0.0611

[[record]]
compound = "COc1cccc(OCCCN)c1-c1cc(Nc2cnc(C#N)cn2)n[nH]1 [Prexasertib] + Cc1cc2ncnn2cc1Nc1ncc2c(n1)n(C1CCOCC1)c(=O)n2C [AZD7648] (first compound max 1 µM, 7x7, partner max 10 µM)"
measured_number = -0.102

[[record]]
compound = "CC1(C)CCC(CN2CCN(c3ccc(C(=O)NS(=O)(=O)c4ccc(NCC5CCOCC5)c([N+](=O)[O-])c4)c(Oc4cnc5[nH]ccc5c4)c3)CC2)=C(c2ccc(Cl)cc2)C1 [Venetoclax] + Cn1cnc2c(F)c(Nc3ccc(Br)cc3Cl)c(C(=O)NOCCO)cc21 [Selumetinib] (first compound max 1 µM, 7x7, partner max 3 µM)"
measured_number = -0.0265


Please go through the list and note Bliss excess for each compound.
1. C=CCn1c(=O)c2cnc(Nc3ccc(N4CCN(C)CC4)cc3)nc2n1-c1cccc(C(C)(C)O)n1 [AZD1775] + O=C(c1cc(Cc2n[nH]c(=O)c3ccccc23)ccc1F)N1CCN(C(=O)C2CC2)CC1 [Olaparib] (first compound max 1 µM, partner max 10 µM)
2. Cc1c2c(nn1C)CSCc1cc(n(C)n1)CSc1cc(c3ccccc3c1)OCCCc1c(C(=O)O)n(C)c3c-2c(Cl)ccc13 [AZD5991] + CC(=O)O[C@H]1C(=O)[C@@]2(C)[C@H]([C@H](OC(=O)c3ccccc3)[C@]3(O)C[C@H](OC(=O)[C@H](O)[C@@H](NC(=O)c4ccccc4)c4ccccc4)C(C)=C1C3(C)C)[C@]1(OC(C)=O)CO[C@@H]1C[C@@H]2O [Paclitaxel] (first compound max 1 µM, 7x7, partner max 3 µM)

[-0.101, -0.0187]

Enter recorded Bliss excess with COR-L95 (Small Cell Lung Carcinoma) for CC1(C)CCC(CN2CCN(c3ccc(C(=O)NS(=O)(=O)c4ccc(NCC5CCOCC5)c([N+](=O)[O-])c4)c(Oc4cnc5[nH]ccc5c4)c3)CC2)=C(c2ccc(Cl)cc2)C1 [Venetoclax] + CCN(CCO)CCCOc1ccc2c(Nc3cc(CC(=O)Nc4cccc(F)c4)[nH]n3)ncnc2c1 [AZD2811] (first compound max 1 µM, 7x7, partner max 1 µM) here. 0.0474
